# Test system: Plasmodium falciparum
# measurement.protocol: Primary screen in NF54 nanoGlo assay, in single point, at 2uM, 72h; a lower Z score goes with more inhibition
# Type: functional, Erythrocyte
# stated.conditions: timepoint 72 hour
Out of some 150,000 compounds screened, about 540 (0.36%) showed an effect of 50% or more. The sample as a whole holds a higher share of strong results than the screen did.
value.type: Z score

1. CCNC(=O)N1CCN(c2ccc(-c3noc(C(F)(F)F)n3)cn2)CC1: -1.6
2. CC1=NO[C@H](C(=O)NCC2(Cn3ccnc3C)CC2)C1: 0.75
3. COCCN1CC[C@H](c2ncnn2C2CCCCC2)C1: 1.3
4. COc1ccc2c(c1)OC13CCN(C)CC1C2C(C(=O)c1ccccc1OC)C(=O)N3 (centres undefined): -6.85
5. O=C1NC(=O)[C@@H]2CN(S(=O)(=O)c3cc(F)cc(Cl)c3)C[C@H]12: 0.7
6. COc1ccc2c(c1)C(=O)N(Cc1ccccc1)C(=O)C2(C)C: 1.06
7. COc1ccccc1NC(=O)C1C(=O)NC23CCCCC2C1c1ccccc1O3 (centres undefined): 1.04
8. Cc1cccc(C(=O)ON2C(=O)CCC2=O)c1: 1.28
9. CC(C)n1c(=O)c(NCc2cccc(C(F)(F)F)c2)nc2ccncc21: -2.33
10. Cc1cccc2ncnc(N(C)C3CC[S+]([O-])CC3)c12 (centres undefined): -0.52
11. COc1cc(C(=O)NCc2cccnc2)ccc1OCC(=O)Nc1cccc(C(F)(F)F)c1: -0.33
12. CC(C)n1ncc2c1CC(NC(=O)CCC1CCCO1)CC2 (centres undefined): 0.62
13. CC(C)(Oc1cc2c(cc1-c1cncc(C3CC3)c1)CCO2)C(=O)O: 0.1
14. CCCCN(CC)C(=O)Nc1cc(Cl)c(OC)cc1OC: -0.07
15. Cc1nc(C(F)(F)F)c(CN(C)C[C@H]2CCOC2)s1: 1.25
16. CC(C)N(CC(=O)Nc1nccs1)Cc1ccccn1: -10.08
17. COc1cc(C(=O)NCC2(C)CCCCCC2)on1: 0.52
18. CCc1ccccc1Nc1c2c(nc3ccccc13)CCCC2: -1.19
19. Cc1nc(N2CCCC2C(=O)N2CCC(C(O)Cc3ccccc3)CC2)nc2ccccc12 (centres undefined): 1.71
20. CN(C(=O)C(C)(C)Nc1ncc(C(F)(F)F)cc1Cl)c1ccc(Cl)cc1: -7.64
21. COc1ccccc1CCNC(=O)c1ccccc1N1CCC(NS(=O)(=O)c2ccc(F)cc2)CC1: -1.5
22. CC(C)(C)OC(=O)N1CC(CNC2(c3ncon3)CCC2)C1: -1.69
23. Cc1cc(C)n2c(C(=O)NCCNS(=O)(=O)c3ccc(Cl)cc3)nnc2n1: 1.16
24. CO[C@@H](C)C(=O)N(Cc1ncc[nH]1)c1cncc(Br)c1: -0.29
25. CC(C)[C@H](NC(=O)[C@H](Cc1ccccc1)n1cnnn1)c1nc2ccccc2[nH]1: 1.85
26. C[C@@H](c1cccnc1)N(C)CC(=O)Nc1nccs1: -1.03
27. O=C(ON1C(=O)CCC1=O)c1cccc(F)c1: -3.87
28. COc1ccc(OC)c([C@H]2N(Cc3ccc(F)cc3)CCCN2Cc2ccccc2Cl)c1: 0.37
29. CCc1cc(NC(=O)N[C@@H](C)c2nc(C(F)(F)F)no2)n(C)n1: 1
30. N#Cc1nccnc1O[C@H]1CCCN(C(=O)NCc2ccc(Cl)cc2)C1: 1.77
31. CC(NC(=O)N(C)CC1CCCO1)c1ccc(N2CCOCC2)cc1 (centres undefined): 0.42
32. Cc1csc(NC(=O)c2cc(-c3ccccc3)on2)n1: 1.01
33. COC1(C)CCN(C(=O)c2ccon2)CC1: 0.52
34. COc1ccc(NC(=O)C2(N(Cc3nc(-c4ccccc4)cs3)C(=O)Cn3nnc4ccccc43)CCCCC2)cc1: -6.2
35. CC(C)c1cccc(Nc2nc3ccncc3n(C(C)C)c2=O)c1: -8.7
36. Cc1ccnc([C@@H](NC(=O)c2c[nH]c3cc(C)nn3c2=O)C2CC2)c1: 0.39
37. Clc1ccc(-c2nnc(-c3ccco3)c3nocc23)cc1: -0.41
38. CC(C)C(=O)N(Cc1ccc(OS(=O)(=O)C(C)C)cc1)CC1CC1: 4
39. c1ccc2cc(-c3ccc4ccccc4n3)ccc2c1: -1.59
40. COc1ccc(C(=O)N(Cc2ccc(OS(=O)(=O)c3ccc(F)cc3)cc2)C(C)C)c(OC)c1: 1.5
41. COc1cc(C=C(C(=O)Nc2ccccc2F)C(=O)Nc2ccccc2F)ccc1OCC(=O)Nc1cccc(C(F)(F)F)c1: 1.63
42. CN(C)c1ccc(NC(=O)C2(N(Cc3ccccc3)C(=O)Cn3nnc4ccccc43)CCCCC2)cc1: 0.77
43. O=C(NC(C1CC1)C1CC1)c1coc(COc2cccc(F)c2)n1: 1.01
44. Fc1ccc(COc2cccc(CNCCN3CCOCC3)c2)cc1: 1.13
